A short record of ΔTm observed with Stimulator of interferon genes protein (Homo sapiens, UniProt Q86WV6) follows.
Sequence (Q86WV6 whole entry): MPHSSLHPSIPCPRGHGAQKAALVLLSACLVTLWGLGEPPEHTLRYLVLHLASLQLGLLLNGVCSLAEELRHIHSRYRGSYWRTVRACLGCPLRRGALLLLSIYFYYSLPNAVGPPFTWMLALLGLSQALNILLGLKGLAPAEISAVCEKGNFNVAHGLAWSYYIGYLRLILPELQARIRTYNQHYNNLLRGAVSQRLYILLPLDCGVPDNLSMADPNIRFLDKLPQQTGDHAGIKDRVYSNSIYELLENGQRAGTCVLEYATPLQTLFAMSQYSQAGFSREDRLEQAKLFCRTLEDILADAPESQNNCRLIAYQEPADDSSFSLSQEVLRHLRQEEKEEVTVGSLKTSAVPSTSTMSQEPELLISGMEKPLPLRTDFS
VALUE TYPE: ΔTm (°C)

# MOLECULE, ASSAYED SYSTEM, VALUE TYPE, RESULT VALUE
rows = [
    ("Nc1nc2c(ncn2[C@@H]2O[C@@H]3COP(=O)(O)O[C@H]4C[C@H](n5cnc6c(N)nc(Cl)nc65)O[C@@H]4COP(=O)(O)O[C@@H]2[C@@H]3O)c(=O)[nH]1", "Stimulator of interferon genes protein (Homo sapiens, UniProt Q86WV6)", "ΔTm", 9.5),
    ("CSc1nc(N)nc2c1ncn2[C@@H]1O[C@@H]2COP(=O)(O)O[C@@H]3[C@H](O)[C@@H](COP(=O)(O)O[C@H]2[C@H]1O)O[C@H]3n1cnc2c(=O)[nH]c(N)nc21", "Stimulator of interferon genes protein (Homo sapiens, UniProt Q86WV6)", "ΔTm", 3.5),
    ("Nc1ncnc2c1ncn2[C@@H]1O[C@@H]2CO[P@@](=O)(O)O[C@H]3[C@@H](O)[C@H](n4cnc5c(N)ncnc54)O[C@@H]3CO[P@@](=O)(O)O[C@H]2[C@H]1O", "Stimulator of interferon genes protein (Homo sapiens, UniProt Q86WV6)", "ΔTm", 2.5),
    ("Nc1nc2c(ncn2[C@@H]2O[C@@H]3COP(=O)(O)O[C@H]4[C@@H](F)[C@H](n5cnc6c(N)nc(F)nc65)O[C@@H]4COP(=O)(O)O[C@@H]2[C@@H]3O)c(=O)[nH]1", "Stimulator of interferon genes protein (Homo sapiens, UniProt Q86WV6)", "ΔTm", 14.7),
    ("Nc1nc2c(ncn2[C@@H]2O[C@@H]3COP(=O)(S)O[C@H]4[C@@H](O)[C@H](n5cnc6c(N)ncnc65)O[C@@H]4COP(=O)(O)O[C@@H]2[C@@H]3O)c(=O)[nH]1 (stereo partly specified)", "Stimulator of interferon genes protein (Homo sapiens, UniProt Q86WV6)", "ΔTm", 13.8),
    ("Nc1nc2c(ncn2[C@@H]2O[C@@H]3COP(=O)(O)O[C@H]4[C@@H](N)[C@H](n5cnc6c(N)ncnc65)O[C@@H]4COP(=O)(O)O[C@@H]2[C@@H]3O)c(=O)[nH]1", "Stimulator of interferon genes protein (Homo sapiens, UniProt Q86WV6)", "ΔTm", 9.4),
    ("Nc1nc2c(ncn2[C@@H]2O[C@@H]3COP(=O)(O)O[C@H]4[C@@H](O)[C@H](n5nnc6c(N)ncnc65)O[C@@H]4COP(=O)(O)O[C@@H]2[C@@H]3O)c(=O)[nH]1", "Stimulator of interferon genes protein (Homo sapiens, UniProt Q86WV6)", "ΔTm", 3.9),
    ("Nc1nc2c(ncn2[C@@H]2O[C@@H]3COP(=O)(O)O[C@H]4[C@@H](O)[C@H](n5cnc6c(=S)[nH]cnc65)O[C@@H]4COP(=O)(O)O[C@@H]2[C@@H]3O)c(=O)[nH]1", "Stimulator of interferon genes protein (Homo sapiens, UniProt Q86WV6)", "ΔTm", 7.3),
    ("Nc1nc2c(ncn2[C@@H]2O[C@@H]3COP(=O)(O)O[C@H]4[C@@H](O)[C@H](n5ccc6c(N)ncnc65)O[C@@H]4COP(=O)(O)O[C@@H]2[C@@H]3O)c(=O)[nH]1", "Stimulator of interferon genes protein (Homo sapiens, UniProt Q86WV6)", "ΔTm", 11.5),
    ("Nc1ncnc2c1ncn2[C@@H]1O[C@@H]2COP(=O)(O)O[C@@H]3[C@H](O)[C@@H](COP(=O)(O)O[C@H]2[C@H]1O)O[C@H]3n1cnc2c(=O)[nH]c(O)nc21", "Stimulator of interferon genes protein (Homo sapiens, UniProt Q86WV6)", "ΔTm", 7.6),
    ("Nc1nc2c(ncn2[C@@H]2O[C@@H]3COP(=O)(O)O[C@H]4[C@@H](O)[C@H](n5cnc6c(=O)[nH]c(N)nc65)O[C@@H]4COP(=O)(O)O[C@H]3[C@H]2O)c(=O)[nH]1", "Stimulator of interferon genes protein (Homo sapiens, UniProt Q86WV6)", "ΔTm", 2.4),
]
